ASSAY_TARGET: MASP-2 CCP2-SP (Homo sapiens (Human))
Sequence (O00187 445-686): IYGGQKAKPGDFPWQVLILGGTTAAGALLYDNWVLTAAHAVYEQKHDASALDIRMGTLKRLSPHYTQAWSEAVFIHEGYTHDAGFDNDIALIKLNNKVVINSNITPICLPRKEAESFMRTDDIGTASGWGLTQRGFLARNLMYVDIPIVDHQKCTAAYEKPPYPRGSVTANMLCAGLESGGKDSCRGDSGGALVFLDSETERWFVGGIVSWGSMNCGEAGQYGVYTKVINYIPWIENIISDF
Sequence (O00187 364-432 partner): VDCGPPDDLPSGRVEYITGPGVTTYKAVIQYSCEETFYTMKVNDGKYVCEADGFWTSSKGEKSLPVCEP
METHOD_DESCRIPTION: MASP-2 co-crystallization, X-ray crystallography and structure analysis (H-bonds, van der Waals contacts);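 further: distance from averaged pharmacophore element to bound ligand; missing value means element absent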
CONDITION_SET: Table A4-1; element C2
Counter-ions that a name gives are not always drawn.
RECORDED_METRIC: Ligand-pharmacophore element distance, pharmacophore element C2
// return a plain number; no unit text

>>> numeric_readout("C[C@H](NC(=O)[C@H]1C[C@H](Cc2ccccc2)CN1)C(=O)NCc1ccc(C(=N)N)cc1.Cl.Cl [1306_2]")
0
>>> numeric_readout("C[C@H](NC(=O)[C@H](N)CCc1ccccc1)C(=O)NCc1ccc(C(=N)N)cc1")
0
>>> numeric_readout("Cc1nc(N)ccc1CNC(=O)[C@H](C)NC(=O)[C@H]1C[C@H](Cc2ccc(-c3ccccc3)cc2)CN1")
0
>>> numeric_readout("C[C@H](NC(=O)[C@H](N)C1Cc2ccccc2C1)C(=O)NCc1ccc2c(N)nccc2c1.Cl.Cl [1088_A]")
1.75
>>> numeric_readout("CC(=O)Nc1ccc(CCN[C@H](CCc2ccccc2)C(=O)N[C@@H](C)C(=O)NCc2ccc(N)nc2C)cc1 [compound 1368, Dihydrochloride]")
0
>>> numeric_readout("Cc1nc(N)ccc1CNC(=O)[C@H](C)NC(=O)[C@H]1C[C@H](Cc2cccc(-c3ccccc3)c2)CN1")
0

Task item: Entry C[C@H](NC(=O)[C@H]1C[C@@H](c2ccccc2)CCN1)C(=O)NCc1cc(Cl)ccc1O.Cl [1078_15] needs its Ligand-pharmacophore element distance, pharmacophore element C2 filled in; supply it.
Reply: 0.81
